Where do the numbers come from? From PubChem BioAssay.

System: XIP peptide (Xip251-270)
Test: small-molecule binders of XIP peptide, primary screen, biochemical, small-molecule microarray, fluorescence 635/667 nm, 0.5 µg/mL protein (AID 1183)
Conditions: small-molecule microarray binding, fluorescence 635 nm; higher = more signal
endpoint: composite z-score

# example entries with known answers
• C=C(/C(=C/C[C@@H](OC(=O)c1ccncc1)c1ccccc1OCCO)c1cc(C(=O)OC)ccc1OC)C(C)C = 0.596
• CCOC(=O)C[C@H]1[C@H](OC(=O)c2ccc(-c3ccccc3)cc2)[C@@H](NC(=O)c2ccc3ccccc3n2)c2cc(OCCCO)ccc2N1C(=O)c1ccccc1 = 0.266
• O=C(O)[C@H](Cc1ccccc1)n1cc(-c2ccccn2)nn1 = 0.32

Prompt: Need composite z-score of COc1ccc(C(O)C2C=CC3C(=O)N(c4ccccc4)C(=O)C3N2Nc2ccccc2)cc1OCc1ccccc1 (centres undefined) , thanks.
Response: 0.713

====

// values below are reported z-score
Assay: basal MM1S mitochondrial membrane potential changes, profiling panel, cell-based, JC-1 fluorescence, 24 h, 100 nL compound (AID 1170)
Conditions: higher = more signal
API note: the answer field is a bare number with no unit suffix.

# example entries with known answers
• O=C1NC(=O)C2C1C=CC(C(O)c1ccc3c(c1)OCO3)N2Nc1ccccn1 (configuration not stated) = -0.263
• Cc1ccc(S[C@]2(C(=O)NCCN3CCOCC3)CC(=O)N(Cc3ccccc3C(F)(F)F)[C@@H]2c2ccc(CO)cc2I)cc1 = -2.36
• COc1ccc([Si](C)(C)[C@H]2[C@H](CCn3cc([C@H](O)c4ccccc4)nn3)O[C@@]3(C(=O)N(Cc4ccc(N5CCC5=O)cc4)c4ccccc43)[C@@H]2C)cc1 = -0.202
• CC(C)(C)OC(=O)CC[C@@]1(C(=O)O)N=C(c2ccc(OCCCO)cc2)O[C@@H]1c1ccccc1 = -0.939
• C=CC[C@@H](OC(=O)Nc1ccc(OC)cc1)c1ccc(OCCO)cc1 = 0.19

Prompt: Need z-score of COCCOC(=O)N1C(=O)[C@@]2(c3cc(C#Cc4ccc(OC)cc4)ccc31)[C@H](C(=O)NC[C@H](O)c1ccccc1)[C@H]1C(=O)O[C@H](c3ccccc3)[C@H](c3ccccc3)N1[C@@H]2c1ccc(O)cc1 , thanks.
Response: 0.122

Prompt: Need z-score of C[C@H]1C2=C3C(CC[C@H]4C(OCc5ccc(F)cc5C(F)(F)F)OC[C@](C)([C@@H]34)N(C(=O)OC(C)(C)C)C2)C(CO)C1CO (some centres not stated) , thanks.
Response: 0.0495

====

// values below are reported composite z-score
Test: small-molecule microarray binders of probe aDKK1, primary screen, biochemical, biotinylated probe, 635/667 nm fluorescence (AID 1099);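 further: score merges 667nm spot fluorescence with signal to noise across triplicate slides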
Details: higher = more signal
API note: the answer field is a bare number with no unit suffix.

- CN1C(=O)C2C=CC(C(O)C3CCCCC3)N(N3CCCCC3)C2C1=O (stereo not drawn): 0.429
- COc1cc(CO)cc(I)c1O[C@H]1C=C(C(=O)NCCO)C[C@@H](N(CC2CCCCC2)C(=O)c2ccc(C(F)(F)F)cc2)[C@@H]1O: -0.267
- CO[C@H]1O[C@H](CO)[C@@H](OC(=O)Nc2ccc(C(F)(F)F)cc2)[C@H](OC(=O)Nc2ccc3c(c2)OCO3)[C@H]1OC(=O)Nc1ccc2c(c1)OCO2: 0.517
- COc1cc2c(cc1OC)CN(C(=O)[C@@H]1[C@H]3C(=O)O[C@H](c4ccccc4)[C@H](c4ccccc4)N3[C@H](c3ccccc3OCCO)[C@@]13C(=O)Nc1ccc(C#CC4(O)CCCCCC4)cc13)CC2: 0.159
- C=CCOC(=O)[C@@H]1[C@H]2C(=O)O[C@H](c3ccccc3)[C@H](c3ccccc3)N2[C@H](c2ccc(OCCOC(=O)[C@H]3C[C@H]4C(=O)N[C@@H](CCCCNC(C)=O)C(=O)N4[C@H]3c3cccc(OCCO)c3)cc2)[C@@]12C(=O)Nc1ccc(I)cc12: 0.453
- CC(=O)n1cc(C(O)C2C=CC3C(=O)N(c4ccccc4)C(=O)C3N2Nc2ccccc2)c2ccccc21 (stereo not drawn): 1.81

Prompt: Need composite z-score of [N-]=[N+]=NCc1ccccc1[C@H]1OC(c2ccc(OCCCO)cc2)=N[C@@]1(CCS(=O)(=O)c1ccccc1)C(N)=O , thanks.
Response: 0.605

Prompt: Need composite z-score of C=C(CCCC)/C(=C/C[C@@H](OC(=O)c1ccncc1)c1cccc(OCCO)c1)c1cnc2ccccc2c1 , thanks.
Response: 0.11

Prompt: Need composite z-score of CC1CC/C=C\[C@H]2OC34C=CCN(c5ccc6ccccc6c5)C(=O)[C@H]3N(C(CO)C(C)C)C(=O)[C@@H]4C2C(=O)O1 (stereo partly drawn) , thanks.
Response: -0.305

Prompt: Need composite z-score of C=C(/C(=C/C[C@@H](OC(=O)c1ccncc1)c1ccccc1OCCO)c1cc(C(=O)OC)ccc1OC)C(C)C , thanks.
Response: -0.223

Prompt: Need composite z-score of C=CCNC(=O)[C@H]1[C@@H]2C(=O)O[C@@H](c3ccccc3)[C@@H](c3ccccc3)N2[C@@H](c2ccccc2OCCO)[C@]12C(=O)N(C(=O)OCCOC)c1ccc(C#CC3=CCCCC3)cc12 , thanks.
Response: 0.683

Prompt: Need composite z-score of COC(=O)[C@@]1(Cc2ccc(OC)cc2)[C@H]2c3cc(C(=O)N(C)C)n(Cc4ccccc4)c3C[C@H]2CN1C(=O)c1ccccc1 , thanks.
Response: 0.268

Prompt: Need composite z-score of COc1c(C)cc(-c2cc3c(c(Cc4ccccc4)n2)[Si](C(C)C)(C(C)C)OC3)cc1C , thanks.
Response: -0.0724

====

Molecular target: Calmodulin-1 (Homo sapiens) (UniProt P0DP23)
Test: calcium-bound CALM1 binders on microarrays, profiling panel, artefact control for SMM control-protein annotation, biochemical, small-molecule microarray, Cy5-labelled CALM1, plus calcium (AID 1112);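 further: score merges spot fluorescence with signal to noise from triplicate slides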
Conditions: Cy5-CALM1 binding fluorescence, higher = more signal
endpoint: composite z-score
API note: the answer field is a bare number with no unit suffix.

* C=CC[C@@H](OC(=O)Nc1ccc(OC)cc1)c1ccc(OCCO)cc1 | -0.819

Prompt: Need composite z-score of C=C(/C(=C/C[C@@H](OC(=O)c1ccncc1)c1ccccc1OCCO)c1cc(C(=O)OC)ccc1OC)C(C)C , thanks.
Response: -0.366

Prompt: Need composite z-score of COc1ccc(C(O)C2C=CC3C(=O)N(C)C(=O)C3N2N2CCCCC2)cc1 (stereo not given) , thanks.
Response: 0.3

Prompt: Need composite z-score of CCOC(=O)C1=CC[C@@H](c2cc(Cl)ccc2Cl)N(S(=O)(=O)c2ccc(C)cc2)[C@H]1c1ccc(OC)cc1 , thanks.
Response: 0.379

Prompt: Need composite z-score of CCOC(=O)C[C@H]1[C@H](OC(=O)Cc2ccc3c(c2)OCO3)[C@@H](NC(=O)C2CCCCC2)c2cc(OCCCO)ccc2N1C(=O)c1ccc2ccccc2n1 , thanks.
Response: -0.896

====

Experiment: P. aeruginosa biofilm formation inhibitors, primary screen, PAO1 strain, BacTiter-Glo luminescence, LB-PBS (AID 1144)
Conditions: 12 h, higher = more signal
Where z-score equals or exceeds -0.4, the correct label is YES; where it does not, the label is NO.

- O=C1O[C@@H](c2ccccc2)[C@@H](c2ccccc2)N2[C@@H](c3ccc(O)cc3)[C@]3(C(=O)Nc4ccc(C#CCCO)cc43)[C@@H](C(=O)Nc3nc4ccccc4s3)[C@H]12: YES

Prompt: Is z-score for CN(C)CCCN1C(=O)[C@@]2(c3ccc([N+](=O)[O-])cc3)CC(=O)N(CC34CC5CC(CC(C5)C3)C4)[C@@H]2c2ccc(CO)cc21 at or above -0.4?
Response: YES

Prompt: Is z-score for COCCOC(=O)N1C(=O)[C@@]2(c3cc(C#CC4(O)CCCCCC4)ccc31)[C@H](c1ccccc1OCCO)N1[C@H](c3ccccc3)[C@H](c3ccccc3)OC(=O)[C@H]1[C@@H]2C(N)=O at or above -0.4?
Response: YES

Prompt: Is z-score for C=C(CCCC)C(=O)CC[C@@H](OC(=O)c1cccnc1)c1ccccc1OCCO at or above -0.4?
Response: YES

====

Experiment: basal 3T3-L1 adipocyte mitochondrial potential changes, profiling panel, cell-based, JC-1 fluorescence, 3T3-L1 adipocytes, 24 h, 100 nL compound (AID 1168)
Conditions: JC-1 mitochondrial fluorescence, higher = more signal, called active from +8 up or from −8 down
Active and inactive are the calls of the source.
endpoint: z-score

Prompt: Need z-score of CCCCC(=C=CC[C@@H](O)c1ccc(OCCO)cc1)C[C@@H](O)COCc1ccccc1 , thanks.
Response: -0.0104 (inactive)

Prompt: Need z-score of COCC(=C=CC[C@H](O)c1ccc(OCCO)cc1)C[C@H](O)COCc1ccccc1 , thanks.
Response: -0.801 (inactive)

Prompt: Need z-score of COc1ccccc1CN1C(=O)c2ccccc2[C@](Cc2ccccc2I)(C(=O)NC(C)C)[C@@H]1c1ccc(CO)cc1 , thanks.
Response: -0.0467 (inactive)

Prompt: Need z-score of CC(C)N1CC=CC23O[C@@H]4C=CCCOC(=O)C4[C@H]2C(=O)N(CCO)[C@@H]3C1=O (stereo partly drawn) , thanks.
Response: 0.5 (inactive)

Prompt: Need z-score of C=C(C(=O)CC[C@H](OC(C)=O)c1cccc(OCCO)c1)C(C)C , thanks.
Response: 0.113 (inactive)

Prompt: Need z-score of C=CCC(OC(C)=O)[C@@H]1[C@@H](N(Cc2cc3ccccc3o2)C(=O)Cc2ccc(F)cc2)c2cc(OCCCO)ccc2N1C(=O)c1ccc2ccccc2n1 (stereo partly drawn) , thanks.
Response: -0.528 (inactive)

Prompt: Need z-score of Cc1ccc(S[C@]2(C(=O)NC3CC3)CC(=O)N(Cc3ccccc3Cl)[C@@H]2c2ccc(CO)cc2I)cc1 , thanks.
Response: 0.515 (inactive)

Prompt: Need z-score of C=C(/C=C/CNS(=O)(=O)c1ccc(C)cc1)[C@H](O)[C@H]1CCCN1S(=O)(=O)c1ccccc1[N+](=O)[O-] , thanks.
Response: -0.221 (inactive)
